src = the supplement of paper PMC9112550

System: Escherichia coli TOP10
protocol_text: shrunken log2 fold change of peptide-encoding DNA abundance (4.5 h post-induction vs induction); higher = less antimicrobial activity (less host growth inhibition)
stated_conditions: time post-induction: 4.5 h; library: site-saturation at positions 5, 18, 19, 20
Outcome label depends on shrunken log2 fold change relative to -0.4: at/above gives Yes, below gives No.

residue_codes	category
RRIRWRPPRLPRPRPRPYISPRP	No
RRIRYRPPRLPRPRPRPIYPPRP	No
RRIRNRPPRLPRPRPRPIFIPRP	No
RRIRRRPPRLPRPRPRPWWFPRP	Yes
RRIRCRPPRLPRPRPRPVHFPRP	Yes
RRIRQRPPRLPRPRPRPDMLPRP	Yes
RRIRMRPPRLPRPRPRPPMNPRP	Yes
RRIRFRPPRLPRPRPRPCDNPRP	Yes
RRIRGRPPRLPRPRPRPRNAPRP	Yes
RRIRGRPPRLPRPRPRPDNCPRP	Yes
RRIRARPPRLPRPRPRPICRPRP	Yes
RRIRSRPPRLPRPRPRPWIPPRP	Yes
RRIRKRPPRLPRPRPRPRLRPRP	Yes
RRIRFRPPRLPRPRPRPIMQPRP	No
RRIRFRPPRLPRPRPRPFQIPRP	Yes

###

// values below are reported shrunken log2 fold change
Test system: Escherichia coli TOP10
protocol_text: shrunken log2 fold change of peptide-encoding DNA abundance (4.5 h post-induction vs induction); higher = less antimicrobial activity (less host growth inhibition)
stated_conditions: time post-induction: 4.5 h; library: site-saturation at positions 5, 18, 19, 20

residue_codes	shrunken log2 fold change
RRIRSRPPRLPRPRPRPVMLPRP	-0.112
RRIRIRPPRLPRPRPRPFQSPRP	-0.469
RRIRLRPPRLPRPRPRPIPQPRP	-0.0537
RRIRMRPPRLPRPRPRPFPCPRP	-0.0872
RRIRDRPPRLPRPRPRPSYAPRP	-0.0918
RRIRYRPPRLPRPRPRPAQQPRP	0.0788
RRIRNRPPRLPRPRPRPASPPRP	0.154
RRIRIRPPRLPRPRPRPSFKPRP	-0.494
RRIRNRPPRLPRPRPRPDFAPRP	-0.0617
RRIRARPPRLPRPRPRPWQRPRP	0.000557
RRIRIRPPRLPRPRPRPAPNPRP	0.0272
RRIRNRPPRLPRPRPRPGEGPRP	0.196
RRIRRRPPRLPRPRPRPDHHPRP	-0.254
RRIRGRPPRLPRPRPRPRVEPRP	0.432
RRIRFRPPRLPRPRPRPFTYPRP	-0.208

###

Test system: Escherichia coli TOP10
protocol_text: shrunken log2 fold change of peptide-encoding DNA abundance (4.5 h post-induction vs induction); higher = less antimicrobial activity (less host growth inhibition)
stated_conditions: time post-induction: 4.5 h; library: site-saturation at positions 5, 18, 19, 20
Class assignment keyed on shrunken log2 fold change, ranges lo = under -0.07, med = from -0.07 up to 0.2, hi = 0.2 and over

residue_codes	category
RRIRTRPPRLPRPRPRPPGIPRP	hi
RRIRDRPPRLPRPRPRPGMYPRP	med
RRIRKRPPRLPRPRPRPMPIPRP	med
RRIRVRPPRLPRPRPRPEGFPRP	med
RRIRYRPPRLPRPRPRPNYEPRP	lo
RRIRYRPPRLPRPRPRPWFCPRP	med
RRIRYRPPRLPRPRPRPGLHPRP	lo
RRIRFRPPRLPRPRPRPLVLPRP	lo
RRIRQRPPRLPRPRPRPQKEPRP	med
RRIRVRPPRLPRPRPRPAQQPRP	hi
RRIRQRPPRLPRPRPRPKLLPRP	lo
RRIRVRPPRLPRPRPRPHEPPRP	med
RRIRQRPPRLPRPRPRPKQWPRP	hi
RRIRHRPPRLPRPRPRPGQWPRP	hi
RRIRARPPRLPRPRPRPIRCPRP	med

###

Test system: Escherichia coli TOP10
protocol_text: shrunken log2 fold change of peptide-encoding DNA abundance (4.5 h post-induction vs induction); higher = less antimicrobial activity (less host growth inhibition)
stated_conditions: time post-induction: 4.5 h; library: site-saturation at positions 5, 18, 19, 20
Outcome label depends on shrunken log2 fold change relative to -0.1: at/above gives Criterion met, below gives Criterion not met.

residue_codes	category
RRIRGRPPRLPRPRPRPANMPRP	Criterion not met
RRIRPRPPRLPRPRPRPILHPRP	Criterion not met
RRIRLRPPRLPRPRPRPKCCPRP	Criterion not met
RRIRYRPPRLPRPRPRPFHDPRP	Criterion not met
RRIRARPPRLPRPRPRPMDYPRP	Criterion not met
RRIRCRPPRLPRPRPRPPDEPRP	Criterion met
RRIRVRPPRLPRPRPRPRPKPRP	Criterion met
RRIRDRPPRLPRPRPRPLDLPRP	Criterion not met
RRIRCRPPRLPRPRPRPHFHPRP	Criterion not met
RRIRRRPPRLPRPRPRPATAPRP	Criterion met
RRIRKRPPRLPRPRPRPHDRPRP	Criterion met
RRIRFRPPRLPRPRPRPMWQPRP	Criterion met
RRIRCRPPRLPRPRPRPKFSPRP	Criterion met
RRIRSRPPRLPRPRPRPGWVPRP	Criterion met
RRIRKRPPRLPRPRPRPQNWPRP	Criterion met

###

System: Escherichia coli TOP10
protocol_text: shrunken log2 fold change of peptide-encoding DNA abundance (4.5 h post-induction vs induction); higher = less antimicrobial activity (less host growth inhibition)
stated_conditions: time post-induction: 4.5 h; library: site-saturation at positions 5, 18, 19, 20
// values below are reported shrunken log2 fold change

residue_codes	target_or_test_system	shrunken log2 fold change
RRIRVRPPRLPRPRPRPSWSPRP	Escherichia coli TOP10	0.0478
RRIRPRPPRLPRPRPRPKSQPRP	Escherichia coli TOP10	-0.193
RRIRARPPRLPRPRPRPNWSPRP	Escherichia coli TOP10	0.225
RRIRWRPPRLPRPRPRPDTEPRP	Escherichia coli TOP10	0.14
RRIRRRPPRLPRPRPRPLHHPRP	Escherichia coli TOP10	0.31
RRIRERPPRLPRPRPRPIVMPRP	Escherichia coli TOP10	-0.86
RRIRYRPPRLPRPRPRPYQVPRP	Escherichia coli TOP10	-0.289
RRIRHRPPRLPRPRPRPNEDPRP	Escherichia coli TOP10	-0.081
RRIRIRPPRLPRPRPRPSKVPRP	Escherichia coli TOP10	-1
RRIRQRPPRLPRPRPRPRQIPRP	Escherichia coli TOP10	0.0413
RRIRNRPPRLPRPRPRPCFMPRP	Escherichia coli TOP10	-0.742
RRIRLRPPRLPRPRPRPGATPRP	Escherichia coli TOP10	0.527
RRIRNRPPRLPRPRPRPEHWPRP	Escherichia coli TOP10	-0.0343
RRIRDRPPRLPRPRPRPIGEPRP	Escherichia coli TOP10	-0.00228
RRIRKRPPRLPRPRPRPNQIPRP	Escherichia coli TOP10	0.105

###

Test system: Escherichia coli TOP10;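 note: peptides expressed intracellularly from a pBAD plasmid library in pooled LB shake-flask culture, induced with 0.3% L-arabinose, DNA abundance read by NGS, three biological replicates, DESeq2 with apeglm shrinkage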
protocol_text: shrunken log2 fold change of peptide-encoding DNA abundance (4.5 h post-induction vs induction); higher = less antimicrobial activity (less host growth inhibition)
stated_conditions: time post-induction: 4.5 h; library: site-saturation at positions 5, 18, 19, 20
Outcome label depends on shrunken log2 fold change relative to -0.02: at/above gives True, below gives False.

residue_codes	category
RRIRGRPPRLPRPRPRPGDSPRP	True
RRIRQRPPRLPRPRPRPWPRPRP	True
RRIRWRPPRLPRPRPRPPHNPRP	True
RRIRERPPRLPRPRPRPLYGPRP	False
RRIRKRPPRLPRPRPRPFQEPRP	True
RRIRYRPPRLPRPRPRPTDGPRP	False
RRIRRRPPRLPRPRPRPPNYPRP	True
RRIRSRPPRLPRPRPRPNKIPRP	False
RRIRCRPPRLPRPRPRPQKKPRP	False
RRIRGRPPRLPRPRPRPVYCPRP	True
RRIRGRPPRLPRPRPRPIMDPRP	True
RRIRERPPRLPRPRPRPVMFPRP	True
RRIRIRPPRLPRPRPRPICHPRP	False
RRIRERPPRLPRPRPRPKSRPRP	True
RRIRSRPPRLPRPRPRPDDMPRP	True
RRIRGRPPRLPRPRPRPSTKPRP	True
RRIRKRPPRLPRPRPRPQMWPRP	True
RRIRSRPPRLPRPRPRPIRGPRP	True
RRIRMRPPRLPRPRPRPSFVPRP	True
RRIRNRPPRLPRPRPRPHAGPRP	True
RRIRNRPPRLPRPRPRPHAPPRP	True
RRIRSRPPRLPRPRPRPEHWPRP	True
RRIRERPPRLPRPRPRPFWNPRP	False
RRIRWRPPRLPRPRPRPGGMPRP	True
RRIRFRPPRLPRPRPRPFDHPRP	False
RRIRRRPPRLPRPRPRPFFVPRP	True
RRIRGRPPRLPRPRPRPPCTPRP	True
RRIRQRPPRLPRPRPRPQSDPRP	True
RRIRNRPPRLPRPRPRPMSRPRP	False
RRIRNRPPRLPRPRPRPYWRPRP	False
RRIRCRPPRLPRPRPRPELGPRP	True
RRIRSRPPRLPRPRPRPHEYPRP	True
RRIRTRPPRLPRPRPRPITRPRP	False
RRIRFRPPRLPRPRPRPWFQPRP	False
RRIRMRPPRLPRPRPRPFCEPRP	True
RRIRYRPPRLPRPRPRPNWVPRP	False
RRIRLRPPRLPRPRPRPENNPRP	False
RRIRERPPRLPRPRPRPYNHPRP	False
RRIRARPPRLPRPRPRPGNSPRP	False
RRIRNRPPRLPRPRPRPIMGPRP	True
RRIRPRPPRLPRPRPRPHSRPRP	False
RRIRPRPPRLPRPRPRPREQPRP	True
RRIRSRPPRLPRPRPRPHSEPRP	False
RRIRFRPPRLPRPRPRPARMPRP	True
RRIRCRPPRLPRPRPRPIDNPRP	False
RRIRARPPRLPRPRPRPLCVPRP	True
RRIRQRPPRLPRPRPRPKVVPRP	True
RRIRMRPPRLPRPRPRPCRYPRP	True
RRIRYRPPRLPRPRPRPGIAPRP	False
RRIRGRPPRLPRPRPRPPKQPRP	True
RRIRRRPPRLPRPRPRPSFPPRP	True
RRIRDRPPRLPRPRPRPHLEPRP	False
RRIRCRPPRLPRPRPRPIMMPRP	False
RRIRGRPPRLPRPRPRPMRQPRP	True
RRIRIRPPRLPRPRPRPSLVPRP	True
RRIRRRPPRLPRPRPRPKYCPRP	True
RRIRGRPPRLPRPRPRPHYQPRP	False
RRIRYRPPRLPRPRPRPIIIPRP	False
RRIRARPPRLPRPRPRPKTYPRP	False
RRIRDRPPRLPRPRPRPGLLPRP	True
RRIRIRPPRLPRPRPRPYSAPRP	False
RRIRDRPPRLPRPRPRPKQGPRP	True
